Please consider the recorded pIC50 for Cytochrome P450 2C19 (Homo sapiens, UniProt P33261) in what follows.
Scale for pIC50: -log10 of concentration given in mol/L; no unit attached.

[[record]]
compound = "CCc1cc(Cc2ccc(CC(N)=O)cc2)nc(-c2cccc(Cl)c2)n1"
reading = 4.54


Shift focus to the following entry.
Input O=C(O)Cc1ccc(Cc2cc(-c3cccc(Cl)c3)nc(C(F)(F)F)c2)cc1 [ZATOLMILAST] , output reported pIC50.
4.37

====

Test: Oral bioavailability in dog
Assay type: ADME, organism-based, Canis lupus familiaris
Conditions: in vivo
MEASURED_PROPERTY: bioavailability

Look up bioavailability of "O=C(O)Cc1ccc(Cc2cc(-c3cccc(Cl)c3)nc(C(F)(F)F)c2)cc1" and report it.
80 to 100%

====

Listed next: entries and their corresponding IC50.
Target: Cytochrome P450 2C9 (Homo sapiens, UniProt P11712)
Sequence (P11712 whole entry): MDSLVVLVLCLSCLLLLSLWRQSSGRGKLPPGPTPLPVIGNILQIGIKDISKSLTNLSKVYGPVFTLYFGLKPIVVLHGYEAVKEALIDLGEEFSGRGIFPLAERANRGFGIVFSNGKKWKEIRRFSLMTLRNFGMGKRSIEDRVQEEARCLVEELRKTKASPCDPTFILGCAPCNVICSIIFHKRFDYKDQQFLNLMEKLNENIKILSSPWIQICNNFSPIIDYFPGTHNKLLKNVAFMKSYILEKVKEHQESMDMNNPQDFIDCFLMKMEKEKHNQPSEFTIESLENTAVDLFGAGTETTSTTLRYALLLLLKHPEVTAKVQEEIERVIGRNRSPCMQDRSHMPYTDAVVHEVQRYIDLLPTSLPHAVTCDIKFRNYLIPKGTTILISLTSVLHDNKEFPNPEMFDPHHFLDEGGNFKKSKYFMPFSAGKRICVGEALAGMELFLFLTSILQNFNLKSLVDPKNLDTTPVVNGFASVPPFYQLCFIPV

[[record]]
compound = "CCc1cc(Cc2ccc(CC(N)=O)cc2)nc(-c2cccc(Cl)c2)n1"
reading = "> 100 µM"


// below: IC50 requested for another compound
Enter recorded IC50 with Cytochrome P450 2C9 (Homo sapiens, UniProt P11712) for O=C(O)Cc1ccc(Cc2cc(-c3cccc(Cl)c3)nc(C(F)(F)F)c2)cc1 [ZATOLMILAST] here.
> 51 µM

====

Assay: Protein binding in dog plasma
Format: ADME, cell-free, Canis lupus familiaris
Conditions: read-out: PPB
# maps each entry to its fraction unbound

Worked set:
[[record]]
molecule = "CCc1cc(Cc2ccc(CC(=O)NCCO)cc2)nc(-c2cccc(Cl)c2)n1"
reading = "0.002 to 0.004"

[[record]]
molecule = "O=C(O)Cc1ccc(Cc2cc(-c3cccc(Cl)c3)nc(C(F)(F)F)c2)cc1 [ZATOLMILAST]"
reading = "0.002 to 0.005"


Now look at this one.
For "CCc1cc(Cc2ccc(CC(N)=O)cc2)nc(-c2cccc(Cl)c2)n1" , write its fraction unbound.
0.002 to 0.005

====

Assay: Protein binding in rat plasma
Format: ADME, cell-free
Settings: read-out: PPB
MEASURED_PROPERTY: fraction unbound

[[record]]
smiles_text = "O=C(O)Cc1ccc(Cc2cc(-c3cccc(Cl)c3)nc(C(F)(F)F)c2)cc1"
reading = "0.002 to 0.005"


Given the compound "CCc1cc(Cc2ccc(CC(=O)NCCO)cc2)nc(-c2cccc(Cl)c2)n1" , write its reported fraction unbound.
0.002 to 0.004

Specify reported fraction unbound for the compound shown: "CCc1cc(Cc2ccc(CC(N)=O)cc2)nc(-c2cccc(Cl)c2)n1"
0.002 to 0.005

====

Test: Oral bioavailability in mouse
Assay type: ADME, organism-based
Conditions: in vivo
MEASURED_PROPERTY: bioavailability (%)
Write the value in % as a bare number.

Consider the compound "CCc1cc(Cc2ccc(CC(N)=O)cc2)nc(-c2cccc(Cl)c2)n1" . State its measured bioavailability.
53

====

Experiment: Stability in rat liver microsomes assessed as parent compound remaining at 1 uM measured after 30 mins by LC-MS/MS analysis
Format: ADME, Microsome
Details: read-out: Stability
Listing of recorded remaining at 0.5 h, 1 µM by entry.

[[record]]
smiles_text = "O=C(O)Cc1ccc(Cc2cc(-c3cccc(Cl)c3)nc(C(F)(F)F)c2)cc1"
reading = "88 to 100%"


Next item in the queue.
Give remaining at 0.5 h, 1 µM for "CCc1cc(Cc2ccc(CC(N)=O)cc2)nc(-c2cccc(Cl)c2)n1"
54 to 90%
